EXPERIMENTAL SYSTEM: T1, human Claudin18.1 (CLDN18.1), full length, on cells (human, UniProt P56856 1-261)
T1 construct: HEK293-CLDN18.1 cells carry a fusion with green fluorescent protein (ZsGreen); CHO-K1-CLDN18.1 cells carry pcDNA3.1-CLDN18.1; The cell line is named under assay; also called CLDN18.1-FL; HEK293-CLDN18.1 cells
ASSAY OVERVIEW: cellular ELISA
ENDPOINT NAME: binding result

| BINDER | ENDPOINT NAME | RECORDED MEASUREMENT |
| --- | --- | --- |
| 309CHI (antibody, human IgG1, V domains shown, chimeric with the constant region of human IgG1) VH: EVKLVESGGGLVQPGGSLKLSCAASGFGFSDYGMAWVRQAPRKGPEWVAFISNSAYSIYYADTVTGRFTISRENAKNTLYLEMSSLRSEDTAMYYCARLGYGNSFAYWGQGTLVTVSA VL: DIVMTQSPSSLTVTAGEKVTMSCKSSQSLLNSGNQKNYLTWYQQKPGQPPKLLIYWASTRESGVPDRFTGSGSGTDFTLTISSVQAEDLAVYYCQNELFYPLTFGAGTKLELK | binding result | no binding |
| 304CHI (antibody, V domains shown, chimeric with the constant region of human IgG1) VH: EVKLVESGGGLVQPGGSLKLSCAASGFGFSDYGMAWVRQAPRKGPEWVAFISNSAYSIYYADTVTGRFTISRENAKNTLYLEMSSLRSEDTAMYYCARLGYGNSFAYWGQGTLVTVSA VL: DIVMTQSPSSLTVTAGEKVTMSCKSSQSLLNSGNQKNYLTWYQQKPGQPPKLLIYWASTREPGVPDRFTGSGSGTDFTLTISSVQAEDLAVYYCQNDYSYPLTFGAGTKLELK | binding result | no binding |
